Biological target: T1, IL-13RA2 huFc (human)
T1 construct: Expressed in 293F cells, purified on protein A; also called human IL13RA2; recombinant IL-13RA2
T1 sequence (chain, as listed by the source limits assumed): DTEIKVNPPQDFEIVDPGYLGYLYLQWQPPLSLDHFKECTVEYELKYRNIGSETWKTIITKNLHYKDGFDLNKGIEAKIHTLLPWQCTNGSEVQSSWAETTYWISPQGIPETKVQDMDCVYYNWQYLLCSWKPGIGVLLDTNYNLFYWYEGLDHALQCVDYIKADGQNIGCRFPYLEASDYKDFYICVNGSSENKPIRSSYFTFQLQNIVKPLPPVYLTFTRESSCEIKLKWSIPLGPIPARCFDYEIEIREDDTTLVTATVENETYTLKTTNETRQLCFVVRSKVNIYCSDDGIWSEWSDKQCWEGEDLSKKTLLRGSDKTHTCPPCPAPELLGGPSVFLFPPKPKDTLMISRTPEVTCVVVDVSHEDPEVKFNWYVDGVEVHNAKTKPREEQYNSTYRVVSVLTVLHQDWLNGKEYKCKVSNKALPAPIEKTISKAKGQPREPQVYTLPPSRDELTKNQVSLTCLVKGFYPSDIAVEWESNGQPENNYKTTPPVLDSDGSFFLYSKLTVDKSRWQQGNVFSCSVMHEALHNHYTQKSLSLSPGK
Assay: SPR (Biacore T200), scFv_Fc forms on IL-13RA2 huFc, summary table
# Lookup of reported kon keyed by entry
Write down the numeric answer in M⁻¹ s⁻¹ and omit the unit.

Please review the entries below; each comes with its answer.
BINDER	RESULT UNITS	VALUE REPORTED
1B11 (scFv_Fc form) (Fc fusion, not shown: human Fc segment of the eukaryotic expression vector V152) scFv: EVQLLESGGGLVQPGGSLRLSCAASGFTFSRDALNWVRQAPGKGLEWVSAISGSGGSTFYADSVKGRFTISRDNSKNTLYLQMNSLRAEDTAVYYCAKVRYGWGAGAFDYWGQGTLVTVSSGGGGSGGGGSGGGGSDIQMTQSPSTLSASVGDRVTITCRASQSISSWLAWYQQKPGKAPKLLIYDASSLESGVPSRFSGSGSGTEFTLTISSLQPDDFATYYCQQYDTYPPITFGQGTKVEIK	M⁻¹ s⁻¹	253000
5D7 (scFv_Fc form) (Fc fusion, not shown: human Fc segment of the eukaryotic expression vector V152) scFv: EVQLLESGGGLVQPGGSLRLSCAASGFTFSNYAMSWVRQAPGKGLEWVSGIRSSGGRTFYADSVKGRFTISRDNSKNTLYLQMNSLRAEDTAVYYCARVAFSGSFDYWGQGTLVTVSSGGGGSGGGGSGGGGSDIQMTQSPSTLSASVGDRVTITCRASQSISSWLAWYQQKPGKAPKLLIYDASSLESGVPSRFSGSGSGTEFTLTISSLQPDDFATYYCQQRNRYPPTFGQGTKVEIK	M⁻¹ s⁻¹	737000

Please examine the following record next.
For the binder shown here, 2C7 (scFv_Fc form) (Fc fusion, not shown: human Fc segment of the eukaryotic expression vector V152) scFv: EVQLLESGGGLVQPGGSLRLSCAASGFTFKLPAMSWVRQAPGKGLEWVSAITGSGGSTYYADSVKGRFTISRDNSKNTLYLQMNSLRAEDTAVYYCAKVRYGWGAGAFDYWGQGTLVTVSSGGGGSGGGGSGGGGSDIQMTQSPSTLSASVGDRVTITCRASQSISSWLAWYQQKPGKAPKLLIYDASSLESGVPSRFSGSGSGTEFTLTISSLQPDDFATYYCQQYDTYPPITFGQGTKVEIK , give the reported kon. 369000
